Entries annotated with measured IC50
- TESTED_TARGET: UniProt:P08246
- ASSAY_DETAILS: biochemical
I only need the number, in nM, no unit after it.

Ask: Look up UniProt:P08246 data: IC50 of CC(=O)OCC1=C(C(=O)OC(C)(C)C)N2C(=O)[C@H](Cl)[C@H]2S(=O)(=O)C1 [R1=Cl, M=CH2OCOCH3, B=OtBu, Q=H] , then report it.
Reply: 52.7

* * *

- TESTED_TARGET: UniProtKB P08246
- Sequence (P08246 30-247 limits assumed): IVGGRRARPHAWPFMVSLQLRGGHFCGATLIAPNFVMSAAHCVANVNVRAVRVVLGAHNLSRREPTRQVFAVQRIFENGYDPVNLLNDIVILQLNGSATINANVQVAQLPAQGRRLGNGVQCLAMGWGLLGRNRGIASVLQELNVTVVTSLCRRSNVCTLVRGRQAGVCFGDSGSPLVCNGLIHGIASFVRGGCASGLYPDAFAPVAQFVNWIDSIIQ
- ASSAY_DETAILS: biochemical
- MEASUREMENT_CONDITIONS: Table II; 50% inhibition of the enzyme activity 2 minutes after zero time; crude PMN extract, pH 7.5, 0.2 mM Boc-AAPAN; read-out: ED50 (the source's name) (converted)
RECORDED_ENDPOINT: IC50 (µM)
I only need the number, in µM, no unit after it.

>  <MOLECULE>
CO[C@H]1C(=O)N2C(C(=O)NCC(=O)OC(C)(C)C)=C(COC(C)=O)CS(=O)(=O)[C@H]12

>  <VALUE_UNITS>
µM

>  <RESULT>
2.08

$$$$
>  <MOLECULE>
COC(=O)C1=C(Cl)CS(=O)(=O)C2[C@@H](OC)C(=O)N12 (stereo partly drawn)

>  <VALUE_UNITS>
µM

>  <RESULT>
0.676

$$$$

For the next question, use this molecule.
Ask: Specify IC50 for COC1C(=O)N2C(C(=O)OC(C)(C)C)=C(COC(C)=O)C(Cc3ccccc3)S(=O)(=O)C12 (stereo not drawn) and stop.
Reply: 32.2

* * *

- TESTED_TARGET: Human Polymorphonuclear Leukocyte Elastase (Homo sapiens, UniProt P08246)
- ASSAY_DETAILS: biochemical
Entries annotated with measured IC50
I only need the number, in nM, no unit after it.

The examples below pair each entry with its known result.
>  <COMPOUND>
CO[C@H]1C(=O)N2C(C(=O)OCc3ccccc3)=C(COC(C)=O)CS(=O)(=O)[C@H]12 [R1=OCH3, M=CH2OCOCH3, B=OCH2.phi., Q=H]

>  <VALUE_UNITS>
nM

>  <IC50>
73.3

$$$$
>  <COMPOUND>
COC1C(=O)N2C(C(=O)OC(C)(C)C)=C(CSc3nccn3C)CS(=O)(=O)C12 (stereo not shown) [R1=OCH3, M=drawing 41, B=OtBu, Q=H]

>  <VALUE_UNITS>
nM

>  <IC50>
2330

$$$$
>  <COMPOUND>
COCC1=C(C(=O)OC(C)(C)C)N2C(=O)[C@H](OC)C2S(=O)(=O)C1 (stereo partly shown) [R1=OCH3, M=CH2OCH3, B=OtBu, Q=H]

>  <VALUE_UNITS>
nM

>  <IC50>
864

$$$$

Ask: Specify IC50 for CC(=O)OCC1=C(C(=O)OC(C)(C)C)N2C(=O)[C@H](F)[C@H]2S(=O)(=O)C1 [R1=F, M=CH2OCOCH3, B=OtBu, Q=H] and stop.
Reply: 82.6

* * *

- TESTED_TARGET: Human Polymorphonuclear Leukocyte Elastase (Homo sapiens)
- ASSAY_DETAILS: biochemical
RECORDED_ENDPOINT: pIC50
Keep in mind that pIC50 stands for -log10 of concentration in molar terms.

The examples below pair each entry with its known result.
>  <COMPOUND>
CO[C@H]1C(=O)N2C(C(=O)OC(C)(C)C)=C(C[S+]([O-])c3ccccc3)CS(=O)(=O)C12 (single isomer, unassigned)

>  <pIC50>
6.74

$$$$
>  <COMPOUND>
COC(=O)C1=C(COC(C)=O)CS(=O)(=O)C2C(OC)C(=O)N12 (centres unmarked)

>  <pIC50>
6.62

$$$$
>  <COMPOUND>
CO[C@H]1C(=O)N2C(C(=O)OC(C)(C)C)=C(CS(=O)(=O)c3ccccc3)CS(=O)(=O)C12 (single isomer, unassigned)

>  <pIC50>
6.36

$$$$
>  <COMPOUND>
CC(=O)OCC1=C(C(=O)OC(C)(C)C)N2C(=O)C(Oc3ccccc3)C2S(=O)(=O)C1 (centres unmarked)

>  <pIC50>
5.74

$$$$

Ask: Specify pIC50 for COC1C(=O)N2C(C(=O)OC(C)(C)C)=C(CSc3nnc(C)s3)CS(=O)(=O)C12 (centres unmarked) [R1=OCH3, M=drawing 42, B=OtBu, Q=H] and stop.
Reply: 5.65
